Hello, the source for this data is patent US6960574B2, in case you need it.

- System: receptor labeled by the radioiodinated analogue of 1 (4, [125I]-YLFQPQRF-NH2); neuropeptide FF receptor
- assay: Competitive radioligand binding against 4 ([125I]Y8F-amide)
- protocol-conditions: mixture-based positional scanning; difference from averaged radioligand displacement of whole library (0); about 80 a.u. = 10-fold change in Ki
Peptide text beside a SMILES is read from it. * marks the point of attachment. Dansyl = CN(C)c1cccc2c(S(=O)(=O)*)cccc12
quantity-name: Relative Binding Index (RBI) (a.u.)
Supply the numeric figure in a.u., leaving out any unit text.

1. CN(C)c1cccc2c(S(=O)(=O)N[C@@H](Cc3c[nH]cn3)C(=O)NCC(=O)N[C@@H](CCCNC(=N)N)C(N)=O)cccc12 [Dansyl-HGR-amide] (Dansyl-His-Gly-Arg-NH2) ... 22
2. C[C@H](NS(=O)(=O)c1cccc2c(N(C)C)cccc12)C(=O)N1CCC[C@H]1C(=O)N[C@@H](CCCNC(=N)N)C(N)=O [Dansyl-APR-amide] (Dansyl-Ala-Pro-Arg-NH2) ... 15
3. CN(C)c1cccc2c(S(=O)(=O)N[C@@H](CCC(N)=O)C(=O)N[C@@H](Cc3ccc(O)cc3)C(=O)N[C@@H](CCCNC(=N)N)C(N)=O)cccc12 [Dansyl-QYR-amide] (Dansyl-Gln-Tyr-Arg-NH2) ... 20
4. CC(C)[C@H](NC(=O)[C@H](Cc1c[nH]cn1)NS(=O)(=O)c1cccc2c(N(C)C)cccc12)C(=O)N[C@@H](CCCNC(=N)N)C(N)=O [Dansyl-HVR-amide] (Dansyl-His-Val-Arg-NH2) ... 12
5. CC(C)[C@H](NC(=O)[C@@H](NS(=O)(=O)c1cccc2c(N(C)C)cccc12)[C@@H](C)O)C(=O)N[C@@H](CCCNC(=N)N)C(N)=O [Dansyl-TVR-amide] (Dansyl-Thr-Val-Arg-NH2) ... −13

Please report Relative Binding Index (RBI) for the following compound: CC[C@H](C)[C@H](NS(=O)(=O)c1cccc2c(N(C)C)cccc12)C(=O)NCC(=O)N[C@@H](CCCNC(=N)N)C(N)=O [Dansyl-IGR-amide] (Dansyl-Ile-Gly-Arg-NH2) −6

Please report Relative Binding Index (RBI) for the following compound: CN(C)c1cccc2c(S(=O)(=O)N[C@@H](CC(=O)O)C(=O)N[C@@H](CCCNC(=N)N)C(=O)N[C@@H](CCCNC(=N)N)C(N)=O)cccc12 [Dansyl-DRR-amide] (Dansyl-Asp-Arg-Arg-NH2) −7

Please report Relative Binding Index (RBI) for the following compound: C[C@H](NC(=O)[C@H](CC(=O)O)NS(=O)(=O)c1cccc2c(N(C)C)cccc12)C(=O)N[C@@H](CCCNC(=N)N)C(N)=O [Dansyl-DAR-amide] (Dansyl-Asp-Ala-Arg-NH2) −55

Please report Relative Binding Index (RBI) for the following compound: CC(C)C[C@H](NS(=O)(=O)c1cccc2c(N(C)C)cccc12)C(=O)N[C@@H](CCC(N)=O)C(=O)N[C@@H](CCCNC(=N)N)C(N)=O [Dansyl-LQR-amide] (Dansyl-Leu-Gln-Arg-NH2) −18

Please report Relative Binding Index (RBI) for the following compound: CN(C)c1cccc2c(S(=O)(=O)N[C@@H](Cc3cnc[nH]3)C(=O)N[C@@H](CCCNC(=N)N)C(=O)N[C@@H](CCCNC(=N)N)C(N)=O)cccc12 [Dansyl-HRR-amide] (Dansyl-His-Arg-Arg-NH2) 15
